Target: Nuclear receptor subfamily 5 group A member 2 (Homo sapiens) (UniProt O00482)
Sequence (O00482 whole entry, looked up): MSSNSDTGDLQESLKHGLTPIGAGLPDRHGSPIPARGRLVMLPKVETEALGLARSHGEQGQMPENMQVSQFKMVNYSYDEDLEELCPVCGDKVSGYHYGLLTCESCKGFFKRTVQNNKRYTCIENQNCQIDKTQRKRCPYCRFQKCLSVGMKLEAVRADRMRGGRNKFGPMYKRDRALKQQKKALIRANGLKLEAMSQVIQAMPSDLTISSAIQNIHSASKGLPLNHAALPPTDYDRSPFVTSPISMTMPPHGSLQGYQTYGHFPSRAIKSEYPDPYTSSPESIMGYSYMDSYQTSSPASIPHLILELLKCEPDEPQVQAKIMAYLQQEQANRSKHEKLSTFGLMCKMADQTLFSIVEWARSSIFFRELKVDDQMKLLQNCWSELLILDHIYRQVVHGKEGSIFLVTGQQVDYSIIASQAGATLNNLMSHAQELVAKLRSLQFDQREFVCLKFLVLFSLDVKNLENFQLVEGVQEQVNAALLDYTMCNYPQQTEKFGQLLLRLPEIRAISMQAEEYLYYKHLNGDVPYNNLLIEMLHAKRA
Assay: LRH-1 (NR5A2) inverse agonists, retest, confirmation, cell-based, luminescence (AID 651613);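 note: HEK293T cells co-transfected with LRH-1 and StAR promoter luciferase reporter; 0% = vehicle wells and 100% = parental cells lacking receptor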
Settings: cell-based LRH-1 luciferase reporter, inverse agonism; at 3.6 µM
Calls of active or inactive are those of the source. Cut-off read from the data, not from the text of the source: active = inhibition above about 42%; inactive = the rest.
Outcome codes: y = active, n = inactive

1) CCN1/C(=C/c2ccc3cc(C)ccc3[n+]2CC)Sc2ccccc21
y
2) COc1ccc(OC)c(C2C3=C(COC3=O)Nc3cc4c(cc32)OCO4)c1 (stereo not given)
n
3) O=C(c1ccc([N+](=O)[O-])o1)N1CCN(c2nc3c(Cl)cccc3s2)CC1
y
4) N#CC1=C(N)C(C#N)(C#N)[C@H](c2c(F)cccc2F)[C@H]2CC3(CC=C12)OCCO3
y
5) COc1ccc(-[n+]2c(C)cc(/C=C3\Sc4ccccc4N3C)cc2C)cc1
y

====

Target: Steroidogenic factor 1 (Homo sapiens) (UniProt Q13285)
Sequence (Q13285 whole entry, looked up): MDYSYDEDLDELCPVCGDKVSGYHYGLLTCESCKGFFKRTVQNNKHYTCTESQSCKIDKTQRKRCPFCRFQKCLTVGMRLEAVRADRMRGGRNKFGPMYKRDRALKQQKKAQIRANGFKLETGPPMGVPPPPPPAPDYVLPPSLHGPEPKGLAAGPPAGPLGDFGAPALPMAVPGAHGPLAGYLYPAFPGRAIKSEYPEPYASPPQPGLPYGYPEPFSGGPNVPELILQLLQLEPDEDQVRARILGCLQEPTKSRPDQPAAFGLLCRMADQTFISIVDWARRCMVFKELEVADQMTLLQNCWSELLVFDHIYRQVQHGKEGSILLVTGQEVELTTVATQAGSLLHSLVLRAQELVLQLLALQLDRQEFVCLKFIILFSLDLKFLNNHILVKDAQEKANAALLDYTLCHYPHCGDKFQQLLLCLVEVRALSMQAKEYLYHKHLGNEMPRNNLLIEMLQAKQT
Assay: SF1 (NR5A1) inverse agonists, counter-screen for LRH-1 inverse agonist project, cell-based, luminescence, high throughput (AID 651614);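 note: cells cotransfected with StAR promoter reporter and SF1 expression vector; 0% = vehicle on cells with receptor and 100% = vehicle on cells lacking receptor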
Details: cell-based SF1 luciferase reporter, at 3.6 µM, active compounds read high
Group membership follows inhibition per the scheme class 1: < 50%; class 2: ≥ 50% and < 70%; class 3: ≥ 70%

1. NC(=O)c1ccc(NC(=O)COC(=O)C2COc3ccccc3O2)cc1 (configuration not stated)
class 2
2. CCCc1cc(=O)oc2cc(OCC(=O)N3CCN(C(=O)C4COc5ccccc5O4)CC3)ccc12 (configuration not stated)
class 2
3. C=C1C(=O)OC2CC1C(OC(C)=O)CC(C)=CCCC(C)=CCCC2(C)O (configuration not stated)
class 1
4. O=S(=O)(c1ccc(-c2csc(Nc3ccc(F)cc3)n2)cc1)N1CCCC1
class 2
5. CC1OC(CC(=O)O)CC2=C1C(=O)c1c(O)cccc1C2=O (configuration not stated)
class 3
6. COc1ccc(NC(=O)c2cc(-c3cc(C)cc(F)c3)n[nH]2)cc1OC
class 2
7. CC1CCCC(C)N1C(=O)COC(=O)CCC1CCCC1 (configuration not stated)
class 2
8. CCOC(=O)c1cc2c(=Cc3ccc(N(C)C)cc3)c3ccccc3n2[n+]1C
class 3
9. Cc1onc(-c2c(F)cccc2Cl)c1C(=O)O/N=C(\N)c1ccc([N+](=O)[O-])o1
class 2
10. O=C(c1c(F)c(F)c(F)c(F)c1F)N1CCN(c2cccc(C(F)(F)F)c2)CC1
class 1
11. O=C(CCl)NCc1cc(-c2ccc(Cl)cc2)no1
class 3
12. COc1ccc(-c2cc(NC=O)c3ncc(-c4ccc(OC)c(OC)c4)n3c2)c(OC)c1
class 2
13. N#Cc1c2c(c(NCCOCCO)n3c1nc1ccccc13)CCCC2
class 1
14. CN(C)CCC(=O)N1C/C(=C/c2ccccc2)C(=O)/C(=C\c2ccccc2)C1
class 3
15. CCCCCCC[N+](CC)(CC)CCCCc1ccc(Cl)cc1
class 2
16. Cc1ccc2c(c1)c(/C=C/c1cc[n+](C)cc1)c(C)n2C
class 3
17. O=C(c1ccco1)N1CCN(C(=O)c2ccc(COc3ccc(Cl)cc3Cl)o2)CC1
class 1
18. O=C(OC(c1ccccc1)c1nccc2ccccc12)c1ccccc1 (configuration not stated)
class 1
19. O[C@@H]1[C@@H](O)C=C2CCN3Cc4cc5c(cc4[C@H]1C23)OCO5 (some centres not stated)
class 3
